Where do these numbers come from? They come from patent US20230338349A1.

assay: Plasma concentration of compound of Formula I in the PET occupancy study; assay type: in vivo; settings: human, single oral dose 1 mg, approx. 0.5 h, healthy subjects

- smiles_representation: "CC(=O)Nc1nc(F)c(CN2CC[C@H](OCc3noc(C)n3)C[C@@H]2C)s1"
  concentration at 0.5 h [ng/mL]: 6.29

====

assay: Single ascending dose study in healthy subjects, pharmacokinetics of compound of Formula I; format: in vivo, human; settings: human, plasma, mean, single oral dose 0.6 mg, 6 h

- smiles_representation: "CC(=O)Nc1nc(F)c(CN2CC[C@H](OCc3noc(C)n3)C[C@@H]2C)s1"
  concentration at 6 h / ng/mL: 2.35
